procedureText: bead signal artefacts at single dose – biochemical, AlphaScreen, triplicate, counter-screen for MITF inhibitor project (AID 1259376)
settings: LysRS AlphaScreen counterscreen, signal interference, at 2.6 µM, stronger effect = higher value
In all, about 4,700 compounds went through this assay and about 360 (7.7%) were called active. Only a sample is shown.
Output t for inhibition not less than 10%; output f otherwise.

Incoming: Entry CCN1CCN(CCCOc2ccc(C(C)=O)cc2OC)CC1 : is its inhibition no less than 10%?
Outgoing: t

Incoming: Entry C=CCc1cc(C)ccc1OCCCn1ccnc1 : is its inhibition no less than 10%?
Outgoing: f

Incoming: Entry COc1ccc(CN2CCCC(C(=O)N3CCCCC3)C2)cc1 (stereo not given) : is its inhibition no less than 10%?
Outgoing: f

Incoming: Entry NC(=O)COC(=O)/C=C/c1ccc(I)o1 : is its inhibition no less than 10%?
Outgoing: t

Incoming: Entry COc1ccc(Cn2nnc(C(=O)Nc3cccc(Cl)c3)c2N)cc1 : is its inhibition no less than 10%?
Outgoing: t

Incoming: Entry O=C(c1ccc2c(c1)C(=O)N(Cc1cccnc1)C2=O)c1ccc2c(c1)C(=O)N(Cc1cccnc1)C2=O : is its inhibition no less than 10%?
Outgoing: t

Incoming: Entry Cc1ccc(OCCCCNCCN2CCOCC2)c(Br)c1 : is its inhibition no less than 10%?
Outgoing: t

Incoming: Entry COc1cccc(OC)c1C(=O)N1CCN(Cc2cccnc2)CC1 : is its inhibition no less than 10%?
Outgoing: t

Incoming: Entry O=[N+]([O-])c1ccccc1S(=O)(=O)N1CCN(C2Cc3ccccc3C2)CC1 : is its inhibition no less than 10%?
Outgoing: t

Incoming: Entry CCC(C)c1ccccc1NC(=O)CN(C)CC(=O)Nc1ccccc1SC (stereo not given) : is its inhibition no less than 10%?
Outgoing: f

Incoming: Entry CCCS(=O)(=O)N1CCN(Cc2cccc(Cl)c2)CC1 : is its inhibition no less than 10%?
Outgoing: t

Incoming: Entry O=S(=O)(c1ccc(Br)cc1Cl)N1CCN(CCc2ccncc2)CC1 : is its inhibition no less than 10%?
Outgoing: t

Incoming: Entry CCNc1nc(NCC)nc(C(=O)O)n1 : is its inhibition no less than 10%?
Outgoing: t

Incoming: Entry CC1CN(CCOc2ccccc2[N+](=O)[O-])CC(C)O1 (stereo not given) : is its inhibition no less than 10%?
Outgoing: t

---

procedureText: bead signal artefacts at single dose – biochemical, AlphaScreen, triplicate, counter-screen for MITF inhibitor project (AID 1259376)
settings: LysRS AlphaScreen counterscreen, signal interference, at 2.6 µM, stronger effect = higher value
In all, about 4,700 compounds went through this assay and about 360 (7.7%) were called active. These entries were drawn from the full list.
Give measured inhibition for each item. Keep answers brief.
The response must be a number in % with no trailing unit.

Incoming: Quick one: give measured inhibition for COc1cccc(CN2CCN(Cc3ccc(C(F)(F)F)cc3)CC2)c1OC
Outgoing: -5.41

Incoming: Quick one: give measured inhibition for CC(C)CO/N=C1\C[C@@H](O)[C@@H](O)[C@@H]2[C@@H]3C(=O)N([C@@H](C)c4ccccc4)C(=O)[C@@H]3CC[C@@H]12
Outgoing: -1.34

Incoming: Quick one: give measured inhibition for COc1ccc2c(c1)CC(C(=O)Nc1ccc(-c3cn[nH]c3)cc1OCC(N)=O)CO2 (configuration not stated)
Outgoing: 16.5

Incoming: Quick one: give measured inhibition for COc1ccc(OC)c(CN2CCN(Cc3ccc(Cl)cc3)CC2)c1
Outgoing: 15.1

Incoming: Quick one: give measured inhibition for CC(=O)N1CCN(CC(=O)Nc2ccc(C)c(F)c2)CC1
Outgoing: 5.18

Incoming: Quick one: give measured inhibition for CCN1CCN(CCCCOc2ccccc2F)CC1
Outgoing: 6.82

Incoming: Quick one: give measured inhibition for CN(CCc1ccccn1)Cc1cccnc1
Outgoing: 22.1

---

procedureText: bead signal artefacts at single dose – biochemical, AlphaScreen, triplicate, counter-screen for MITF inhibitor project (AID 1259376)
settings: LysRS AlphaScreen counterscreen, signal interference, at 2.6 µM
The whole screen tested about 4,700 compounds, of which about 360 (7.7%) were called active.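 The calls were made as follows: active = inhibition above a cutoff derived from the DMSO control wells (cut at about 30% in these data); inactive = the rest.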 Only a sample is shown.
Your reply should match one of these outcome classes. T for active, F for inactive

Incoming: Hello, I am checking results. What call was entered for O=C(Nc1ccc2c(c1)OCO2)C(c1ccccc1)N(Cc1ccccc1)Cc1ccccc1 (stereo not given) ?
Outgoing: F

Incoming: Hello, I am checking results. What call was entered for COc1cc(CN2CCN(Cc3ccc(OC)c(OC)c3)CC2)cc(OC)c1 ?
Outgoing: F

Incoming: Hello, I am checking results. What call was entered for CSc1ccc(CN2CCN(Cc3cccc(Oc4ccccc4)c3)CC2)cc1 ?
Outgoing: F

Incoming: Hello, I am checking results. What call was entered for Cc1nc2sc(C(c3ccccc3Cl)N3CCC4(CC3)OCCO4)c(O)n2n1 (stereo not given) ?
Outgoing: F

Incoming: Hello, I am checking results. What call was entered for COc1ccc(CN2CCN(Cc3ccccc3C(F)(F)F)CC2)cc1OC ?
Outgoing: F

Incoming: Hello, I am checking results. What call was entered for COC(=O)C1(C)NC(c2ccc(C)cc2)C2C(=O)N(c3ccc(F)cc3)C(=O)C21 (stereo not given) ?
Outgoing: F

Incoming: Hello, I am checking results. What call was entered for COC(=O)C(C)CN1CCN(Cc2ccc3c(c2)OCO3)CC1 (stereo not given) ?
Outgoing: F

Incoming: Hello, I am checking results. What call was entered for O=S(=O)(c1ccc(F)cc1)N1CCN(Cc2ccccc2C(F)(F)F)CC1 ?
Outgoing: F

Incoming: Hello, I am checking results. What call was entered for COc1ccc(CN2CCN(Cc3ccccc3OC)CC2)cc1Br ?
Outgoing: F

Incoming: Hello, I am checking results. What call was entered for CC[C@@H]1NC(=O)[C@H]2CN(C(=O)NCc3ccccc3)CCN2C1=O ?
Outgoing: F

Incoming: Hello, I am checking results. What call was entered for Cc1cc(C(C)(C)C)ccc1OCCN1CCNCC1 ?
Outgoing: F

Incoming: Hello, I am checking results. What call was entered for COCc1nc2ccccc2n1CCc1noc(-c2ccco2)n1 ?
Outgoing: F

Incoming: Hello, I am checking results. What call was entered for O=C(O)CCCCCNC(=O)/C(=C\c1ccco1)NC(=O)c1ccccc1 ?
Outgoing: F

Incoming: Hello, I am checking results. What call was entered for COc1cc2nc(-c3cccc(C(C)=O)c3)nc(N)c2cc1OC ?
Outgoing: F

Incoming: Hello, I am checking results. What call was entered for CN1CCC(N2CCN(c3ccccc3Cl)CC2)CC1 ?
Outgoing: F

Incoming: Hello, I am checking results. What call was entered for CCCS(=O)(=O)N1CCN(C(C)C)CC1 ?
Outgoing: F

Incoming: Hello, I am checking results. What call was entered for Cc1ccc(C(C)C)c(OCCN2CCNCC2)c1 ?
Outgoing: F

Incoming: Hello, I am checking results. What call was entered for CCN(Cc1ccccc1)Cc1ccc([N+](=O)[O-])cc1 ?
Outgoing: F

Incoming: Hello, I am checking results. What call was entered for COc1cccc(C(=O)N2CCN(Cc3cc(OC)c(OC)cc3OC)CC2)c1 ?
Outgoing: F

Incoming: Hello, I am checking results. What call was entered for CN(C)c1cccc(Nc2ccc(-c3cccc(C=O)c3)cn2)c1 ?
Outgoing: T
